Entries and their measured protein stability index follow.
B1: TPD52L2 (parent)
chain: EAEEEELRAELTKVEEEIVTLRQV

# Variants of: B1
# protocol notes: protein stability index of a GFP-peptide fusion (GPS, HEK-293T) (PSI 1-6); higher = more stable;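 also: lentivirally expressed fusions sorted by FACS into six bins by GFP to DsRed ratio, PSI derived from sequencing read proportions per bin multiplied by bin number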
# experimental context: c terminus: a fixed tail appended
reported endpoint: protein stability index

> print(dat)
   mutant.code  result
1          E4Q    4.02
2         T12N     3.9
3          R8Q    3.96
4          A9Q       4
